# protocol summary: in vitro
# study conditions: PAMPA
Recorded Papp determines the group label, using low group (below 8 ×10⁻⁶ cm/s), middle group (8 ×10⁻⁶ cm/s to below 20 ×10⁻⁶ cm/s), high group (20 ×10⁻⁶ cm/s or more)

Known results for compounds:
{"columns": ["compound", "class label"],
 "data": [
  ["CCN(Cc1ccccc1)S(=O)(=O)c1ccccc1 [DNDI0003363563]", "low group"],
  ["CCC(Cc1ccccc1)[S+]([O-])c1nc(C)cc(C)c1C#N (stereo not drawn) [DNDI0003297458]", "middle group"],
  ["COc1ccc(OC)c(S(=O)(=O)N(Cc2ccccc2)Cc2ccccc2)c1 [DNDI0003292440]", "low group"],
  ["COCCN(Cc1ccccc1)S(=O)(=O)c1ccccc1 [DNDI0003363821]", "high group"],
  ["O=S(=O)(NCc1ccccc1)c1cc(F)ccc1F [DNDI0003365406]", "high group"]
]}

Query compound follows.
Input line: Form: Item = CC[C@H](Cc1ccccc1)[S+]([O-])c1ccccc1OC (stereo partly drawn) [DNDI0003362001] ; Class = ?
Output line: middle group

====

# Tested on: Leishmania infantum MHOM/MA(BE)/67/ITMAP263 intracellular amastigotes
# protocol summary: microbe, parasite or virus in culture
# study conditions: Macrophage, in Mus musculus, read-out: L. Inf. pIC50, from L. infantum intracellular amastigote IC50 (converted)
# IC50 values compiled below

{"columns": ["compound", "IC50"],
 "data": [
  ["CCCCOc1ccc(C(=O)N2CCOCC2)cc1S(=O)(=O)NCc1ccccc1", "> 64 µM"],
  ["CC(=O)Nc1ccc(S(=O)(=O)N(CCN(C)C)Cc2ccccc2)cc1", "> 64 µM"],
  ["COc1ccc(S(N)(=O)=O)cc1S(=O)(=O)NCc1ccccc1", "> 64 µM"],
  ["COc1ccc(OC)c(S(=O)(=O)N(Cc2ncccn2)Cc2ncccn2)c1", "> 64 µM"],
  ["O=S(=O)(c1cc(F)ccc1F)N(Cc1ccc(F)cc1)Cc1ccc(F)cc1", "> 64 µM"],
  ["Cc1cc(C)c(C#N)c(SCSc2nc(C)cc(C)c2C#N)n1", "> 64 µM"],
  ["CCN(Cc1ccccc1)S(=O)(=O)c1cc(F)ccc1N1CCCC1", "12.9 µM"],
  ["CCN(Cc1ccccc1)S(=O)(=O)c1ccc(NC(C)=O)cc1", "> 64 µM"],
  ["COc1ccc(OC)c(S(=O)(=O)NCc2ccccc2)c1", "> 64 µM"],
  ["COc1ccc(C(=O)N2CCOCC2)cc1S(=O)(=O)N(Cc1ccc(F)cc1)Cc1ccc(C(F)(F)F)nc1", "1.74 µM"]
]}

For CCCCC(=O)Nc1cccnc1S(=O)(=O)CCOc1ccccc1 the compound record lists IC50 as 32.4 µM

For COc1ccc(N2CCOCC2)cc1S(=O)(=O)N(Cc1ccc(F)cc1)Cc1ccc(F)cc1 the compound record lists IC50 as 0.324 µM

====

# microsomal CLint at 0.5 μM values compiled below
# protocol summary: in vitro
# study conditions: human, microsomes, pH 7.4, HLM CLint, human liver microsomes
Give the number; µL/min/mg is assumed, so skip it.

For COc1ccc(OC)c(S(=O)(=O)N(Cc2ccc(F)cc2)Cc2nc(C)no2)c1 [DNDI0003368295] the compound record lists microsomal CLint at 0.5 μM as 350

For COc1ccc(S(N)(=O)=O)cc1S(=O)(=O)N(Cc1ccccc1)Cc1ccccc1 [DNDI0003578385] the compound record lists microsomal CLint at 0.5 μM as 58

For COc1cc(S(=O)(=O)N(Cc2ccccc2)Cc2ccccc2)c(OC)cc1C [DNDI0002644002] the compound record lists microsomal CLint at 0.5 μM as 920

For CCC(Cc1ccccc1)[S+]([O-])c1nc(C)cc(C)c1C#N (stereo not drawn) [DNDI0003297458] the compound record lists microsomal CLint at 0.5 μM as 1230

For CCCCCOc1cc(C)c(C)cc1S(=O)(=O)NC1CCCC1 [DNDI0002550647] the compound record lists microsomal CLint at 0.5 μM as 567

For CN(C)CCOc1ccc(F)cc1S(=O)(=O)N(Cc1ccc(F)cc1)Cc1ccc(F)cc1 [DNDI0003371161] the compound record lists microsomal CLint at 0.5 μM as 214

For COc1ccc(OC)c(S(=O)(=O)N(Cc2ccc(F)cc2)c2ccc(F)cc2)c1 [DNDI0003371170] the compound record lists microsomal CLint at 0.5 μM as 417

For COCCN(Cc1ccccc1)S(=O)(=O)c1c(OC)ccc(Cl)c1S(C)(=O)=O [DNDI0003578381] the compound record lists microsomal CLint at 0.5 μM as 51

For COc1ccc(OC)c(S(=O)(=O)N(Cc2ccccc2)Cc2ccccc2)c1 [DNDI0003292440] the compound record lists microsomal CLint at 0.5 μM as 242

For CCCN(Cc1ccc(F)cc1)S(=O)(=O)c1cc([S+](C)[O-])ccc1OC (stereo not drawn) [DNDI0003578384] the compound record lists microsomal CLint at 0.5 μM as 67

For COc1ccc(C#N)cc1S(=O)(=O)N(Cc1ccc(F)cc1)Cc1oc(C)nc1C [DNDI0003370421] the compound record lists microsomal CLint at 0.5 μM as 392

====

# protocol summary: in vitro
# study conditions: mouse, microsomes, pH 7.4, Microsome Clint,u Mouse, Table 2; intrinsic in vitro clearance, liver microsomes
quantity measured: microsomal CLint at 0.5 h, 0.5 µM

Recorded results for 5 compounds are shown here.
{"columns": ["compound", "microsomal CLint at 0.5 h, 0.5 µM"],
 "data": [
  ["COc1ccc(OC)c(S(=O)(=O)N(Cc2ccc(F)cc2)Cc2nc(C)no2)c1 [Compound 36]", "3050 µL/min/mg"],
  ["COc1ccc(C(=O)N2CCOCC2)cc1S(=O)(=O)N(Cc1ccccc1)CC(C)(C)C [Compound 45]", "2580 µL/min/mg"],
  ["COCCN(Cc1ccc(F)cc1)S(=O)(=O)c1ccccc1OC(F)(F)F [Compound 40]", "222 µL/min/mg"],
  ["COc1ccc(OC)c(S(=O)(=O)N(Cc2ccc(F)cc2)c2ccc(F)cc2)c1 [Compound 33]", "1560 µL/min/mg"],
  ["COc1ccc(C(=O)N2CCOCC2)cc1S(=O)(=O)N(Cc1ccc(F)cc1)CC(C)C [Compound 44]", "1400 µL/min/mg"]
]}

For COc1ccc(C#N)cc1S(=O)(=O)N(Cc1ccc(C(F)(F)F)nc1)Cc1ccc(C(F)(F)F)nc1 [Compound 50] the compound record lists microsomal CLint at 0.5 h, 0.5 µM as 95 µL/min/mg

For COc1ccc(C(=O)N2CCOCC2)cc1S(=O)(=O)N(Cc1ccccc1)Cc1cnc(C(F)(F)F)nc1 [Compound 47] the compound record lists microsomal CLint at 0.5 h, 0.5 µM as 152 µL/min/mg

For COCCN(Cc1ccc(F)cc1)S(=O)(=O)c1cc(C#N)ccc1OC [Compound 41] the compound record lists microsomal CLint at 0.5 h, 0.5 µM as 585 µL/min/mg

====

# protocol summary: in vitro
# study conditions: human, microsomes, pH 7.4, HLM CLint (uL/min/mg), human liver microsomes
Recorded microsomal CLint at 0.5 μM determines the group label, using low value = under 80 µL/min/mg, medium value = from 80 µL/min/mg up to 200 µL/min/mg, high value = 200 µL/min/mg and over

Known results for compounds:
{"columns": ["compound", "class label"],
 "data": [
  ["COc1ccc(C(=O)N2CCOCC2)cc1S(=O)(=O)N(Cc1ccc(F)cc1)CC(C)C [DNDI0003389127]", "high value"],
  ["COc1ccc(OC)c(S(=O)(=O)N(Cc2ccc(F)cc2)C2CCOCC2)c1 [DNDI0003388086]", "low value"],
  ["COCCOCN1CNc2cc(OC)c(S(=O)(=O)N(Cc3ccccc3)Cc3ccccc3)cc2S1(=O)=O [DNDI0003425511]", "high value"]
]}

Input line: Form: Item = O=C(c1ccc(OCC2CCCO2)c(S(=O)(=O)NCc2ccccc2)c1)N1CCOCC1 (stereo not shown) [DNDI0003407877] ; Class = ?
Output line: medium value

Input line: Form: Item = CN(C)c1ncccc1S(=O)(=O)N(Cc1ccc(F)cc1)Cc1ccc(F)cc1 [DNDI0003389117] ; Class = ?
Output line: high value

====

# protocol summary: physchem
# study conditions: HPLC, Ascentis Express RP Amide column, pH 7.4, eLogD
quantity measured: chromatographic logD
Response field accepts a number only; no unit should be typed.

Recorded results for 2 molecules are shown here.
{"columns": ["compound", "chromatographic logD"],
 "data": [
  ["CCN(Cc1ccccc1)S(=O)(=O)c1ccc(C)cc1", 4.1],
  ["CCCCC(=O)Nc1cccnc1S(=O)(=O)CCc1ccccc1", 3.9]
]}

For CCN(Cc1ccccc1)S(=O)(=O)c1ccc(OC)cc1 the molecule record lists chromatographic logD as 3.9

For COc1ccc(Cl)cc1S(=O)(=O)N(CCN(C)C)Cc1ccccc1 the molecule record lists chromatographic logD as 4
